Test system: RXRa DBDmut IVT, anti-RXR (DBD mutation: RXRa K156A/R161A, NR concentration 90 nM)
METHOD_DESCRIPTION: PBM binding z-score (relative to random genomic background probes); higher = stronger binding; sequences stand for … in GC…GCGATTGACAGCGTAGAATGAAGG
Task for the reader: assign each of the following sequences its reported PBM binding z-score.
One number for each entry.

1) CCTACTGGGCCAAGGGTCATTGATTCCAATGCTC
-0.197
2) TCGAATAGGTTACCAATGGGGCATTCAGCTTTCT
1.09
3) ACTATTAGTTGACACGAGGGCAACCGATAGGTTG
0.816
4) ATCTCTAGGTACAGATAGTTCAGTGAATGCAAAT
1.17
5) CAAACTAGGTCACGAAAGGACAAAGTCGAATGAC
1.59

For each of the sequences below, state PBM binding z-score.
1. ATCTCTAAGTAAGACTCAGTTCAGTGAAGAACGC
2. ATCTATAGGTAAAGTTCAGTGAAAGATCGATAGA
3. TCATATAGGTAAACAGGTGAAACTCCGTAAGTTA

Result:
1: 0.804; 2: 1.21; 3: 1.37

For each of the sequences below, state PBM binding z-score.
1. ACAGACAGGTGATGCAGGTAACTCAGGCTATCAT
2. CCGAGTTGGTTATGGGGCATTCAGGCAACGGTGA
3. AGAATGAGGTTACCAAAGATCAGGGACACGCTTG

Result:
[-0.176, 1.14, 1.2]

###

System: RXRa homodimer (NR concentration 180 nM)
METHOD_DESCRIPTION: PBM binding z-score (relative to random genomic background probes); higher = stronger binding; sequences stand for … in GC…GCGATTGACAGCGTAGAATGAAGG
Classification field. Basis: PBM binding z-score. Definitions: band 1 (below 0.7), band 2 (0.7 to below 3), band 3 (3 or more)

# count of solved cases: 3
1. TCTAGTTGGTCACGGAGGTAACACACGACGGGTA
band 2
2. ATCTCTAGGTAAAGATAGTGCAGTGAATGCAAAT
band 1
3. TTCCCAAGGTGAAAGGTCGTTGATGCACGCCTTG
band 3

Q: For the record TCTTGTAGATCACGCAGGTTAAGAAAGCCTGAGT , report the class its PBM binding z-score corresponds to.
Result: band 2

Q: For the record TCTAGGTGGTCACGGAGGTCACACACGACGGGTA , report the class its PBM binding z-score corresponds to.
Result: band 3

Q: For the record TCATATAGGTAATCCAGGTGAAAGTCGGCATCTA , report the class its PBM binding z-score corresponds to.
Result: band 2

Q: For the record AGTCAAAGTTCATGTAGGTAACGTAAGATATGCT , report the class its PBM binding z-score corresponds to.
Result: band 3

Q: For the record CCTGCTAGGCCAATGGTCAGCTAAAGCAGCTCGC , report the class its PBM binding z-score corresponds to.
Result: band 1

###

Test system: THRa:RXRa (NR concentration 90 nM, RXRa partner concentration 90 nM)
METHOD_DESCRIPTION: PBM binding z-score (relative to random genomic background probes); higher = stronger binding; sequences stand for … in GC…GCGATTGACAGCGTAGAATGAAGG
Task for the reader: assign each of the following sequences its reported PBM binding z-score.
Answers are plain numbers.

Sample records with PBM binding z-score:
1) TCTATTAGTTGCAGGGCAACCGACGAGTCCGTTT
0.323
2) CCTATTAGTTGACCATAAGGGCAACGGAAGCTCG
1.84
3) GCTAGTTGGTCACTAAAAGGTCACACACCGGTCG
3.61

For each of the sequences below, state PBM binding z-score.
1. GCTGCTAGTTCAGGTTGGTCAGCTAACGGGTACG
2. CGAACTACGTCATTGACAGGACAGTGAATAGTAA
3. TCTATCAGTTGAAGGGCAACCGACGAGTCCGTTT
4. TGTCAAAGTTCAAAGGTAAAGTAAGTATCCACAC
5. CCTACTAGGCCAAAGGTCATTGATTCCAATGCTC

Result:
1: -0.00713; 2: 0.0548; 3: 0.16; 4: 3.08; 5: 3.67

For each of the sequences below, state PBM binding z-score.
1. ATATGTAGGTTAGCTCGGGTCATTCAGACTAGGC
2. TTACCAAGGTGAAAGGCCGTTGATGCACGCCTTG
3. GATACAGGGTCAGCTAGAGGCGAGAGTATGGAAA
4. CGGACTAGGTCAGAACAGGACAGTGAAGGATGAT
5. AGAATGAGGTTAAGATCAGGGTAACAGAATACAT

Result:
4.98
1.45
2.79
3.38
3.16
